- assayTarget: Aldo-keto reductase family 1 member C3 (Homo sapiens)
- Sequence (P42330 whole entry): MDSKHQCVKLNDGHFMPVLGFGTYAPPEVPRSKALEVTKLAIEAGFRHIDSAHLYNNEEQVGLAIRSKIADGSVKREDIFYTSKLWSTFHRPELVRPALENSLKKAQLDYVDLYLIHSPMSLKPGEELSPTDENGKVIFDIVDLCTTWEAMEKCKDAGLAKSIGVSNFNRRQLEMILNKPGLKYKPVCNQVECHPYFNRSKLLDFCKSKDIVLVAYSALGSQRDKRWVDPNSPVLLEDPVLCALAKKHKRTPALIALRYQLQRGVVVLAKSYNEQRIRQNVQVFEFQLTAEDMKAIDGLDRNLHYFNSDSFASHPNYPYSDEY
- protocolSummary: Inhibition of recombinant AKR1C3 (unknown origin) after 1 hr by competitive fluorescence assay
resultType: IC50 (nM)
Write the value in nM as a bare number.

Some solved cases for reference:
>>> reading("O=C(N1CCSCC1)N1CCN(c2ccc(Cl)cc2)CC1")
9100
>>> reading("O=C(N1CCOCC1)N1CCN(c2ccc(I)cc2)CC1")
67
>>> reading("O=C(N1CCOCC1)N1CCN(c2ccc(Cl)cc2CO)CC1")
160

Next item in the queue.
Value lookup for IC50; key = O=C(c1ccc(Cl)cc1)N1CCN(C(=O)N2CCOCC2)CC1
480
